- target under test: human recombinant Monoacylglycerol Lipase (Homo sapiens, UniProt Q99685)
- Sequence (Q99685 whole entry): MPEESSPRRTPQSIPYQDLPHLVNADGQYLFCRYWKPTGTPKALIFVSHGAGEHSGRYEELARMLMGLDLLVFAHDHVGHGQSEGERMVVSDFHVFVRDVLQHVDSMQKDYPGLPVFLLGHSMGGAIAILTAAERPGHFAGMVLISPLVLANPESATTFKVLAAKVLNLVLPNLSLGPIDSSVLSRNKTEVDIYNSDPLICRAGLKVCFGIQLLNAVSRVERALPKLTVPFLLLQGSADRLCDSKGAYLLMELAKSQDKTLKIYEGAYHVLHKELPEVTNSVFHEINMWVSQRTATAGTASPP
- measurement description: MAGL enzymatic assay (IC50; 7-HCA substrate added at T=0 min or T=30 min)
- Format: biochemical
- run parameters: substrate 7-HCA added immediately (T=0 min); geometric mean of 2-5 determinations unless otherwise indicated; read-out: MAGL (T = 0 min) IC50
assay endpoint: IC50 (µM)
One number for each entry, in µM.

Past entries and their recorded results:
- molecule: "CN(C1CCOC2(CCN(C(=O)O[C@H](CO)C(F)(F)F)CC2)C1)S(=O)(=O)CC1CC1 (single isomer, unassigned)"
  target under test: "human recombinant Monoacylglycerol Lipase (Homo sapiens, UniProt Q99685)"
  IC50 / µM: 0.752
- molecule: "O=C(O[C@H](CO)C(F)(F)F)N1CCC2(CC1)CC(n1cc(C3CC3)cn1)C2"
  target under test: "human recombinant Monoacylglycerol Lipase (Homo sapiens, UniProt Q99685)"
  IC50 / µM: 0.013

Next molecule, IC50 to be filled in.
In: # get_value(readout='IC50', item= `O=C(O[C@H](CO)C(F)(F)F)N1CCC2(CC1)CC(c1ccc(C(F)F)cn1)C2` )
Out: 0.018

====

- target under test: human recombinant Monoacylglycerol Lipase (Homo sapiens, UniProt Q99685)
- measurement description: MAGL enzymatic assay (IC50; 7-HCA substrate added at T=0 min or T=30 min)
- Type: biochemical
- run parameters: substrate 7-HCA added immediately (T=0 min); geometric mean of 2-5 determinations unless otherwise indicated; read-out: MAGL (T = 0 min) IC50
assay endpoint: pIC50
Give bare numbers, as −log10 of the molar value.

See these solved cases before continuing.
- compound: "N#Cc1ccc(C2COC3(CCN(C(=O)O[C@H](CO)C(F)(F)F)CC3)C2)c(F)c1 (single isomer, unassigned)"
  pIC50: 7.49
- compound: "CN(C1CC2(CCN(C(=O)O[C@H](CO)C(F)(F)F)CC2)C1)S(=O)(=O)c1ccccc1"
  pIC50: 8.05
- compound: "O=C(O[C@H](CO)C(F)(F)F)N1CCC2(CC1)CC(c1ccnc(C(F)F)c1)C2"
  pIC50: 7.89
- compound: "O=C(O[C@H](CO)C(F)(F)F)N1CCC2(CC1)C[C@H](n1cc(F)cn1)CO2"
  pIC50: 6.25
- compound: "O=C(O[C@H](CO)C(F)(F)F)N1CCC2(CC1)CC(n1cc(C(F)F)cn1)C2"
  pIC50: 7.40
- compound: "O=C(O[C@H](CO)C(F)(F)F)N1CCC2(CC1)CC(Oc1ccccn1)C2"
  pIC50: 7.59

Please go through the list and note pIC50 for each compound.
1. O=C(O[C@H](CO)C(F)(F)F)N1CCC2(CC1)CC(c1ccc(F)cn1)C2
2. N#Cc1ccc([C@H]2COC3(CCN(C(=O)O[C@H](CO)C(F)(F)F)CC3)C2)cc1F
3. CN(C1CC2(CCN(C(=O)O[C@H](CO)C(F)(F)F)CC2)C1)S(=O)(=O)C(C)(C)C
4. O=C(O[C@H](CO)C(F)(F)F)N1CCC2(CC1)CC(n1cc(C(F)(F)F)cn1)CO2 (single isomer, unassigned) [Example 8]
5. O=C(O[C@H](CO)C(F)(F)F)N1CCC2(CC1)CC(c1ccccc1F)CO2 (single isomer, unassigned) [Example 25]
6. O=C(O[C@H](CO)C(F)(F)F)N1CCC2(CC1)CC(Oc1ccc(C(F)F)cn1)C2

Out:
1: 7.68; 2: 7.77; 3: 8.05; 4: 6.76; 5: 7.70; 6: 8.40

Consider the following items and state reported pIC50 for each.
1. O=C(O[C@H](CO)C(F)(F)F)N1CCC2(CC1)CC(c1ccc(F)cc1)CO2 (single isomer, unassigned)
2. O=C(O[C@H](CO)C(F)(F)F)N1CCC2(CC1)CC(Cn1cc(C(F)(F)F)cn1)CO2 (single isomer, unassigned) [Example 4]
3. N#Cc1cccc(C2CCOC3(CCN(C(=O)O[C@H](CO)C(F)(F)F)CC3)C2)c1 (single isomer, unassigned)

Out:
1: 7.32; 2: 7.19; 3: 7.59
